testSystem: NAD-dependent protein deacetylase sirtuin-1 (Homo sapiens) (UniProt Q96EB6)
Sequence (Q96EB6 whole entry): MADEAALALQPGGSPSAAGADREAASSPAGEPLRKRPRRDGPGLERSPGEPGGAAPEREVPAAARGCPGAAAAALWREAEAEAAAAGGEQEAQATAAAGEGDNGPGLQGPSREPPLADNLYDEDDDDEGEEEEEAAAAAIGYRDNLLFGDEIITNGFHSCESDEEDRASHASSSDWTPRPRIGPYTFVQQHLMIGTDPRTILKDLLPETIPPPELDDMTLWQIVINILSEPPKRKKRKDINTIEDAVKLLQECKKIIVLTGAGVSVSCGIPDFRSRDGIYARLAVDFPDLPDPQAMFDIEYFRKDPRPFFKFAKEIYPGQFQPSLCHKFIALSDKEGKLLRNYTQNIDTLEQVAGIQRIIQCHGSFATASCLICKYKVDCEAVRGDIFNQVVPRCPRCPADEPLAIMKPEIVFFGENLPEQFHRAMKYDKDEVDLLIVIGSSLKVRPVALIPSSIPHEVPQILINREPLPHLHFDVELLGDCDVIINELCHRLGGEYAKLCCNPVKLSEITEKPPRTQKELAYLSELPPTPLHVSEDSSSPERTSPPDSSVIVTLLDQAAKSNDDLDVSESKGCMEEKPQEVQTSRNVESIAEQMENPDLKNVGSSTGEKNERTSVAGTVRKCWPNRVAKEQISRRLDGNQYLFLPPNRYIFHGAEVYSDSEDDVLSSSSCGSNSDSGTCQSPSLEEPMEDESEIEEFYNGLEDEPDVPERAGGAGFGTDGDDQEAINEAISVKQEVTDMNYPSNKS
protocolDescription: Activation of full-length GST-tagged recombinant human SIRT1 assessed as enzyme activity obtained without subtraction of intrinsic fluorescence using p53-based untagged peptide as substrate at 50 uM after 30 mins by SIRTainty assay
Below, each of the molecules is paired with its reported Activity value.
metric: Activity (%)

molSmiles | metric | valueReported
CC1=C(C(=O)O)C(c2ccccc2)C(C(=O)O)=C(C)N1Cc1ccccc1 | Activity | 103
CCOC(=O)C1=CN(C(=O)OCc2ccccc2)C=C(C(=O)OCC)C1c1ccccc1 | Activity | 206
O=C(O)C1=CN(Cc2ccccc2)C=C(C(=O)O)C1c1cc2ccccc2s1 | Activity | 38
CCOC(=O)C1=CN(C(=O)c2ccccc2)C=C(C(=O)OCC)C1c1ccc(Cl)cc1 | Activity | 231
CCOC(=O)C1=CN(Cc2ccccc2)C=C(C(=O)OCC)C1c1cnc2ccccc2c1 | Activity | 324
CC1=C(C(N)=O)C(c2ccccc2)C(C(N)=O)=C(C)N1Cc1ccccc1 | Activity | 110
O=C(O)C1=CN(Cc2ccccc2)C=C(C(=O)O)C1c1cccc2ccccc12 | Activity | 108
CCOC(=O)C1=CN(Cc2ccccc2)C=C(C(=O)OCC)C1c1ccsc1 | Activity | 404
CCOC(=O)C1=CN(C(=O)c2ccccc2)C=C(C(=O)OCC)C1c1cccc(Cl)c1 | Activity | 163
CCOC(=O)C1=CN(Cc2ccccc2)C=C(C(=O)OCC)C1c1ccc(-c2ccccc2)cc1 | Activity | 61
O=C(O)C1=CN(Cc2ccccc2)C=C(C(=O)O)C1c1cncs1 | Activity | 172
O=C(O)C1=CN(Cc2ccccc2)C=C(C(=O)O)C1c1ccc(-c2ccccc2)cc1 | Activity | 285
CCOC(=O)C1=CN(C(=O)c2ccccc2)C=C(C(=O)OCC)C1c1ccccc1Cl | Activity | 184
CCOC(=O)C1=CN(C(=O)c2ccccc2)C=C(C(=O)OCC)C1c1ccccc1OC | Activity | 170
CCOC(=O)C1=CN(C(=O)c2cnccn2)C=C(C(=O)OCC)C1c1ccccc1 | Activity | 242

###

testSystem: NAD-dependent protein deacetylase sirtuin-1 (Homo sapiens) (UniProt Q96EB6)
protocolDescription: Activation of full-length GST-tagged recombinant human SIRT1 assessed as enzyme activity obtained with subtraction of intrinsic fluorescence using p53-based untagged peptide as substrate at 50 uM after 30 mins by SIRTainty assay
Item-by-item account of Activity

compound | quantityUnit | Activity
CCOC(=O)C1=CN(C(=O)c2ccccc2)C=C(C(=O)OCC)C1c1ccc(C)cc1 | % | 103
NC(=O)C1=CN(Cc2ccccc2)C=C(C(N)=O)C1c1cncs1 | % | 165
CCOC(=O)C1=CN(Cc2ccccc2)C=C(C(=O)OCC)C1c1ccc(-c2ccccc2)cc1 | % | 61
O=C(O)C1=CN(Cc2ccccc2)C=C(C(=O)O)C1c1cncs1 | % | 128
CCOC(=O)C1=CN(C(=O)c2ccccc2)C=C(C(=O)OCC)C1c1cccc(Cl)c1 | % | 127
O=C(O)C1=CN(Cc2ccccc2)C=C(C(=O)O)C1c1ccc(-c2ccccc2)cc1 | % | 285
O=C(O)C1=CN(Cc2ccccc2)C=C(C(=O)O)C1c1ccco1 | % | 41
CCOC(=O)C1=CN(Cc2ccccc2)C=C(C(=O)OCC)C1c1cncs1 | % | 133
CCOC(=O)C1=CN(Cc2ccccc2)C=C(C(=O)OCC)C1c1cnc2ccccc2c1 | % | 283
CC1=C(C(N)=O)C(c2ccccc2)C(C(N)=O)=C(C)N1Cc1ccccc1 | % | 110
CCOC(=O)C1=CN(Cc2ccccc2)C=C(C(=O)OCC)C1c1ccco1 | % | 64
NC(=O)C1=CN(Cc2ccccc2)C=C(C(=O)O)C1c1ccccc1 (centres undefined) | % | 160
O=C(O)C1=CN(Cc2ccccc2)C=C(C(=O)O)C1c1cc2ccccc2s1 | % | 7
NC(=O)C1=CN(Cc2ccccc2)C=C(C(N)=O)C1c1nccs1 | % | 188
CCOC(=O)C1=CN(S(=O)(=O)c2ccccc2)C=C(C(=O)OCC)C1c1ccccc1 | % | 130
CCOC(=O)C1=CN(Cc2ccccc2)C=C(C(=O)OCC)C1c1cccs1 | % | 117
N#CC1=CN(Cc2ccccc2)C=C(C#N)C1c1ccccc1 | % | 152
CCOC(=O)C1=CN(C(=O)c2ccccc2)C=C(C(=O)OCC)C1c1ccc(Cl)cc1 | % | 191
CCOC(=O)C1=CN(C(=O)c2ccccc2)C=C(C(=O)OCC)C1c1ccccc1Cl | % | 143
CCOC(=O)C1=CN(C(=O)c2ccccc2)C=C(C(=O)OCC)C1c1ccccc1C | % | 140
NC(=O)C1=CN(Cc2ccccc2)C=C(C(N)=O)C1c1cccs1 | % | 49
O=C(O)C1=CN(Cc2ccccc2)C=C(C(=O)O)C1c1cccc2ccccc12 | % | 94
CCOC(=O)C1=CN(C(=O)c2ccccc2)C=C(C(=O)OCC)C1c1ccccc1OC | % | 127
CCOC(=O)C1=CN(C(=O)c2ccccc2)C=C(C(=O)OCC)C1c1cccc(OC)c1 | % | 117

###

protocolDescription: Antagonist activity at calcium channel in guinea pig smooth muscle assessed as inhibition of calcium-induced contraction in K+-depolarized aortic strips
cond: Cavia porcellus
pIC50: −log10 of the molar value.

molSmiles | pIC50
COC(=O)C1=C(C)NC(C)=C(C(=O)OC)C1c1ccccc1[N+](=O)[O-] | 8.05

###

Tested on: HCT-116
protocolDescription: Antiproliferative activity against human HCT116 cells assessed as cell viability after 72 hrs by MTT assay
Type: functional, cell-based
cond: HCT-116, 72 h

molSmiles | testSystem | quantityUnit | IC50
CCOC(=O)C1=CN(C(=O)c2ccccc2)C=C(C(=O)OCC)C1c1ccccc1 | HCT-116 | µM | 62

###

testSystem: NAD-dependent protein deacetylase sirtuin-1 (Homo sapiens)
protocolDescription: Activation of SIRT1 in human HaCaT cells assessed as H4K16 deacetylation at 1 uM after 1 hr by Western blotting method
Assay type: cell-based
Active and inactive are the calls of the source. The calls are words filed in the database; no cut-off is given here.
metric: Activity

molSmiles | valueReported
CCOC(=O)C1=CN(Cc2ccccc2)C=C(C(=O)OCC)C1c1ccccc1 | Active
Oc1ccc(/C=C/c2cc(O)cc(O)c2)cc1 | Active
CCOC(=O)C1=CN(Cc2ccccc2)C=C(C(=O)OCC)C1c1ccsc1 | Active
CCOC(=O)C1=CN(C(=O)c2ccccc2)C=C(C(=O)OCC)C1c1ccccc1 | Active
CCOC(=O)C1=CN(Cc2ccccc2)C=C(C(=O)OCC)C1c1ccco1 | Active

###

testSystem: NAD-dependent protein deacetylase sirtuin-1 (Homo sapiens)
protocolDescription: Activation of full-length GST-tagged recombinant human SIRT1 assessed as enzyme activity obtained with subtraction of intrinsic fluorescence using p53-based untagged peptide as substrate at 50 uM after 30 mins by SIRTainty assay

compound | quantityUnit | Activity
NC(=O)C1=CN(Cc2ccccc2)C=C(C(N)=O)C1c1ccc2ccccc2c1 | % | 67
CCOC(=O)C1=CN(C(=O)c2ccccc2)C=C(C(=O)OCC)C1c1ccccc1 | % | 153
NC(=O)C1=CN(Cc2ccccc2)C=C(C(N)=O)C1c1ccsc1 | % | 97
CCOC(=O)C1=CN(Cc2ccccc2)C=C(C(=O)O)C1c1ccccc1 (stereo unspecified) | % | 105
CCOC(=O)C1=CN(Cc2ccccc2)C=C(C(=O)OCC)C1c1nccs1 | % | 282
CCOC(=O)C1=CN(C(=O)c2cnccn2)C=C(C(=O)OCC)C1c1ccccc1 | % | 171
CCOC(=O)C1=C(C)N(Cc2ccccc2)C(C)=C(C(=O)OCC)C1c1ccccc1 | % | 114
CCOC(=O)C1=CN(C(=O)OCc2ccccc2)C=C(C(=O)OCC)C1c1ccccc1 | % | 158
CCOC(=O)C1=CN(C(=O)c2ccccc2)C=C(C(=O)OCC)C1c1cccc(C)c1 | % | 140
CCOC(=O)C1=CN(Cc2ccccc2)C=C(C(=O)OCC)C1c1ccsc1 | % | 126
O=C(O)C1=CN(Cc2ccccc2)C=C(C(=O)O)C1c1cnc2ccccc2c1 | % | 167
CCOC(=O)C1=CN(Cc2ccccc2)C=C(C(=O)OCC)C1c1ccc2ccccc2c1 | % | 100
CCOC(=O)C1=CN(C(=O)c2cnc3ccccc3n2)C=C(C(=O)OCC)C1c1ccccc1 | % | 165
CCOC(=O)C1=CN(Cc2ccccc2)C=C(C(=O)OCC)C1c1cc2ccccc2s1 | % | 39
O=C(O)C1=CN(Cc2ccccc2)C=C(C(=O)O)C1c1ccsc1 | % | 45
CCOC(=O)C1=CN(Cc2ccccc2)C=C(C(=O)OCC)C1c1ccccc1 | % | 164
CC1=C(C(=O)O)C(c2ccccc2)C(C(=O)O)=C(C)N1Cc1ccccc1 | % | 102
CCOC(=O)C1=CN(C(=O)c2ccccc2)C=C(C(=O)OCC)C1c1ccc(OC)cc1 | % | 131
O=C(O)C1=CN(Cc2ccccc2)C=C(C(=O)O)C1c1nccs1 | % | 132
CCOC(=O)C1=CN(Cc2ccccc2)C=C(C(N)=O)C1c1ccccc1 (stereo unspecified) | % | 108
CCOC(=O)C1=CN(C(=O)c2ccc3ccccc3c2)C=C(C(=O)OCC)C1c1ccccc1 | % | 207
